Test system: Caco-2
assay.remarks: WST-1 test, colon cancer cells
Assay type: cell-based, human
condition.summary: 72 h
measurement.name: IC50 (µM)
Give the value, in units of µM, as a plain number.

I have this compound here, CN(Cc1cn(-c2ccnc3c(Br)cccc23)nn1)S(=O)(=O)c1cccc2cccnc12 [Compound 10b] , and I need its recorded IC50.
0.3

====

measurement.name: melting point

The examples below pair each entry with its known result.
compound	melting point
CN(Cc1cn(Cc2ccc(C#N)cc2)nn1)S(=O)(=O)c1cccc2cccnc12	112 to 113 °C
Cc1cn(C2CC(n3cc(CN(C)S(=O)(=O)c4cccc5cccnc45)nn3)C(CO)O2)c(=O)[nH]c1=O (stereo not shown) [Compound 11b]	176 to 178 °C
Cc1cn(C2CC(n3cc(CNS(=O)(=O)c4cccc5cccnc45)nn3)C(CO)O2)c(=O)[nH]c1=O (stereo not shown) [Compound 11a]	149 to 150 °C
CN(Cc1cn(-c2ccnc3cc(Cl)ccc23)nn1)S(=O)(=O)c1cccc2cccnc12	189 to 190 °C
CN(Cc1cn(Cc2ccc(F)cc2)nn1)S(=O)(=O)c1cccc2cccnc12	85 to 86 °C

I have this compound here, CN(Cc1cn(Cc2ccc([N+](=O)[O-])cc2)nn1)S(=O)(=O)c1cccc2cccnc12 , and I need its recorded melting point.
103 to 105 °C

Now the same for O=S(=O)(NCc1cn(CSc2ccccc2)nn1)c1cccc2cccnc12
106 to 107 °C
